src = PubChem BioAssay (NCATS)

# Protocol Description: Quantitative High-Throughput drug screen in 47 multiple myeloma cell lines against the NCATS MIPE library collection: NCIH929_DSMZ cell viability assay (AID 1918978); also: nearly all actives have a fitted effect of over 35% in size
# Assay Context: NCI-H929 myeloma viability, CellTiter-Glo ATP, 48 h; series mostly up to 45.8 µM
Inconclusive results are not listed. Active and inactive are the calls of the source. Calls follow the shape of the dose curve; as a rule, active = well fitted cell-killing curve with a large enough effect; inconclusive = small, poorly fitted or top-dose-only effect; inactive = no such curve, though single readings can be large or run the other way.
One label from this list, please: active, inactive

Lab log entry: CC(NCc1ccc2c(c1)nc(NC(=O)c1ccc(-c3cn[nH]c3)s1)n2CC(C)(C)O)C(C)(C)C (stereo not given) — outcome as called in the assay?
active

Lab log entry: O=C(c1ccc(Nc2nccc(-c3cc4ccccc4s3)n2)cc1)N1CCC(N2CCCC2)CC1 — outcome as called in the assay?
active

###

# Protocol Description: Quantitative High-Throughput drug screen in 47 multiple myeloma cell lines against the NCATS MIPE library collection: NCIH929_DSMZ cell viability assay (AID 1918978); also: nearly all actives have a fitted effect of over 35% in size
# Assay Context: NCI-H929 myeloma viability, CellTiter-Glo ATP, 48 h; series mostly up to 45.8 µM
# Description: PI: Beverly A. Mock Ph.D. Laboratory of Cancer Biology and Genetics, Center for Cancer Research, National Cancer Institute, National Institute of Health, Bethesda, Maryland […] 5; Detector; 425V; Luminescence; Viewlux PerkinElmer. […] 1. […] Briefly, the corresponding myeloma cell lines were screened in 1,536-well plates with 500 cells, 5-uL per well for inhibition of cell viability (assessed by measuring ATP levels with CellTiterGlo). […]
Records with an inconclusive call do not appear. Active and inactive are the calls of the source. The call rests on the fitted dose curve; in most records, active means well fitted cell-killing curve with a large enough effect; inconclusive means small, poorly fitted or top-dose-only effect; inactive means no such curve, though single readings can be large or run the other way.
One label from this list, please: T (active), F (inactive)

Sample Smiles: Nc1ccn([C@@H]2O[C@H](CO)[C@H](O)C2(F)F)c(=O)n1
Cat: T
//
Sample Smiles: O=C(O)CCCc1c[nH]c2ccccc12
Cat: F

Lab log entry: Cc1c(CN2CCN(S(C)(=O)=O)CC2)sc2c(N3CCOCC3)nc(-c3cnc(N)nc3)nc12 — outcome as called in the assay?
T

Lab log entry: COc1ccc(C=Cc2cc(OC)c(OC)c(OC)c2)cc1O — outcome as called in the assay?
F

Lab log entry: CC(C)Nc1cc(C(F)(F)F)cc2nc(NC(=O)c3cccnc3)nn12 — outcome as called in the assay?
F

Lab log entry: Nc1ccccc1NC(=O)c1ccc(CNc2nccc(-c3cccnc3)n2)cc1 — outcome as called in the assay?
T

Lab log entry: CCc1c2c(nc3ccc(O)cc13)-c1cc3c(c(=O)n1C2)COC(=O)[C@]3(O)CC — outcome as called in the assay?
T

Lab log entry: CCC(=C(c1ccccc1)c1ccc(OCCN(C)C)cc1)c1ccccc1 — outcome as called in the assay?
T

Lab log entry: COc1cccc2c(NCc3ccccc3)nc(-n3c(N)nc4ccccc43)nc12 — outcome as called in the assay?
T

Lab log entry: COc1cccc(Nc2c(C(N)=O)cnc3c(C)cc(S(=O)(=O)c4cccc(C(=O)N(C)C)c4)cc23)c1 — outcome as called in the assay?
F

###

# Protocol Description: qHTS profiling for inhibitors of Plasmodium falciparum (3D7) proliferation (AID 743322);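 also: infected erythrocytes exposed to compound for 72 h before lysis; 100% = DMSO vehicle wells and 0% = 0.29 µM artemisinin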
# Assay Context: P. falciparum 3D7 proliferation; at 28.7 µM (top of the series)
Below, each entry is listed with its recorded remaining parasite growth % (stronger effect = lower value).
Form entry: enter the amount, then its unit.

Below are worked cases with known answers.
Sample Smiles: CCCCCN(CCC12CC3CC(CC(C3)C1)C2)C(=O)NCCCc1ccncc1
Observed: 7.44%
--
Sample Smiles: COc1cc2nccc(Oc3ccc(NC(=O)C4(C(=O)Nc5ccc(F)cc5)CC4)cc3)c2cc1OC
Observed: 3.02%
--
Sample Smiles: CC(C)(C)c1cnc(CSc2cnc(NC(=O)C3CCNCC3)s2)o1
Observed: 9.96%
--
Sample Smiles: CCOc1cc2ncc(C#N)c(Nc3ccc(F)c(Cl)c3)c2cc1NC(=O)C=CCN(C)C
Observed: -0.461%
--
Sample Smiles: CC(C)=CCCC(C)=CCCC(C)=CCSc1ccccc1C(=O)O
Observed: 101%

// recorded remaining parasite growth % (stronger effect = lower value) for Cc1cc(Nc2cc(N3CCN(C)CC3)nc(Sc3ccc(NC(=O)C4CC4)cc3)n2)n[nH]1 : 39.3%

// recorded remaining parasite growth % (stronger effect = lower value) for Cn1cc(-c2[nH]c3cc(NC(=O)[C@H](N)C4CCCCC4)cc4c3c2C=NNC4=O)cn1 : -2.18%

// recorded remaining parasite growth % (stronger effect = lower value) for C[C@@H](Oc1cc(-c2cnn(C3CCNCC3)c2)cnc1N)c1c(Cl)ccc(F)c1Cl : -1.04%

// recorded remaining parasite growth % (stronger effect = lower value) for Cc1ccc(C(=O)Nc2ccc(CN3CCN(C)CC3)c(C(F)(F)F)c2)cc1C#Cc1cnc2cccnn12 : -1.18%

###

# Protocol Description: Quantitative High-Throughput drug screen in 47 multiple myeloma cell lines against the NCATS MIPE library collection: KMS28BM_JCRB cell viability assay (AID 1919874); also: nearly all actives have a fitted effect of over 35% in size
# Assay Context: CellTiter-Glo ATP, 48 h; series mostly up to 45.8 µM
Results filed as inconclusive are left out. The source made the active and inactive calls. Calls follow the shape of the dose curve; as a rule, active = well fitted cell-killing curve with a large enough effect; inconclusive = small, poorly fitted or top-dose-only effect, or effect the other way; inactive = no such curve, though single readings can be large or run the other way.
One label from this list, please: Y for active, N for inactive

Before answering, review these 8 worked examples.
Molecule: CCN(CC)CCNC(=O)c1ccc2nc(-c3ccccc3)c(-c3ccc(CN4CCC(n5c(=O)[nH]c6ccccc65)CC4)cc3)nc2c1
Cat: Y
//
Molecule: CNC(=O)CN1CCC(Oc2cc3c(Nc4cccc(Cl)c4F)ncnc3cc2OC)CC1
Cat: Y
//
Molecule: O=C(C=Cc1c(C(=O)O)[nH]c2cc(Cl)cc(Cl)c12)Nc1ccccc1
Cat: N
//
Molecule: CN1CCN(Cc2ccc(NC(=O)Nc3ccc(Oc4cc(NC(=O)C5CC5)ncn4)cc3)cc2C(F)(F)F)CC1
Cat: Y
//
Molecule: CN(C1CCc2c(c3ccccc3n2CC(=O)O)C1)S(=O)(=O)c1ccc(F)cc1 (centres undefined)
Cat: Y
//
Molecule: Cn1c(=O)n(-c2ccc(C(C)(C)C#N)cc2)c2c3cc(-c4cnc5ccccc5c4)ccc3ncc21
Cat: Y
//
Molecule: CC1COC2(CCN(c3nc(=O)c4cc(C(F)(F)F)cc([N+](=O)[O-])c4s3)CC2)O1 (centres undefined)
Cat: N
//
Molecule: O=C(O)CO.[NH2-].[NH2-].[Pt+2]
Cat: N

Field: next molecule
Lab log entry: CN1c2cc(O)c(N=NC(N)=O)cc2CC1S(=O)(=O)O (centres undefined) — outcome as called in the assay?
N

###

# Protocol Description: qHTS profiling of the MIPE4 collection as inhibitors of Plasmodium falciparum (DD2) proliferation (AID 743345)
# Assay Context: P. falciparum Dd2 in erythrocytes, SYBR Green DNA, 72 h; at 28.5 µM (top of the series) unless noted
Below, each entry is listed with its recorded parasite growth remaining, % of DMSO control (lower = more inhibition).
Expressed in %, but write only the number.

Below are worked cases with known answers.
Compound: COc1c(N2C[C@@H]3CCCN[C@H]3C2)c(F)cc2c(=O)c(C(=O)O)cn(C3CC3)c12
Observed: 76.4

Compound: O=C(O)Cn1nnc(-c2cc(N3CCC(Oc4cc(F)ccc4Br)CC3)no2)n1
Observed: 127

Compound: CCCCc1nc2cc(C=CC(=O)NO)ccc2n1CCN(CC)CC
Observed: 7.36

// recorded parasite growth remaining, % of DMSO control (lower = more inhibition) for Cc1nc(N)ncc1-c1nc(N2CCOCC2)c2sc(C(C)(C)O)cc2n1 : 8.49

// recorded parasite growth remaining, % of DMSO control (lower = more inhibition) for CNC(=O)c1c(F)cccc1Nc1nc(Nc2cc3c(cc2OC)CCN3C(=O)CN(C)C)nc2[nH]ccc12 : 6.69

// recorded parasite growth remaining, % of DMSO control (lower = more inhibition) for Cc1cc(Nc2cc(CN3CCOCC3)c3nc(C)c(Cc4ccc(Cl)cc4F)n3n2)n[nH]1 : 7.86

// recorded parasite growth remaining, % of DMSO control (lower = more inhibition) for Clc1ccc2ncc(-c3cccc(NC4CNC4)n3)n2c1 : 24.5

// recorded parasite growth remaining, % of DMSO control (lower = more inhibition) for CC(=O)c1c(C)c2cnc(Nc3ccc(N4CCNCC4)cn3)nc2n(C2CCCC2)c1=O : 6.84

// recorded parasite growth remaining, % of DMSO control (lower = more inhibition) for COc1cc(-c2nn(C3CCC(N4CCN(C(C)=O)CC4)CC3)c3ncnc(N)c23)ccc1NC(=O)c1cc2ccccc2n1C (centres undefined) : 12.1

###

# Protocol Description: P-glycoprotein substrates identified in KB-8-5-11 adenocarcinoma cell line, qHTS therapeutic library screen (AID 1346987); also: nearly all actives have a fitted effect of over 65% in size; also: potency is read from the fitted curve at half-maximal effect
# Assay Context: KB-8-5-11 (P-gp overexpressing) viability, CellTiter-Glo, 72 h; series mostly up to 44.5 µM
# Method: The ATP-binding cassette transporters P-glycoprotein (P-gp) is known to limit brain penetration of many chemotherapy drugs. […] All cell lines were plated into 1536-well plates at 500 cells/well in 5 uL media. […] CellTiter-Glo reagent (Promega) was dispensed into the wells, incubated for 5 min and luminescence was read on a ViewLux instrument (Perkin-Elmer). […]
Records with an inconclusive call do not appear. The source made the active and inactive calls. Calls follow the shape of the dose curve; as a rule, active = well fitted inhibition curve with a large enough effect; inconclusive = small, poorly fitted or top-dose-only effect; inactive = flat fitted curve, though single readings scatter.
Property Name: Potency

Below are worked cases with known answers.
Sample Smiles: COc1cc(C(=O)NS(=O)(=O)c2ccccc2C)ccc1Cc1cn(C)c2ccc(NC(=O)OC3CCCC3)cc12
Observed: inactive
//
Sample Smiles: CCCCOc1c(C(=O)c2c(F)cc(C)cc2F)cnc2n[nH]cc12
Observed: inactive
//
Sample Smiles: Nc1nc(-c2nn(Cc3ccccc3F)c3ncccc23)nc(N)c1N1CCOCC1
Observed: inactive
//
Sample Smiles: CNC(=O)c1ccc(-c2cnc3ncc(Cc4ccc5ncccc5c4)n3n2)cc1F
Observed: inactive
//
Sample Smiles: Cn1cc(-c2[nH]c3cc(NC(=O)[C@H](N)C4CCCCC4)cc4c3c2C=NNC4=O)cn1
Observed: inactive
//
Sample Smiles: CCNC(=O)Nc1ccc2ncc(Nc3ccc(C)cc3)nc2n1
Observed: inactive

// recorded Potency for COc1cc2ncnc(Nc3ccc(F)c(Cl)c3)c2cc1NC(=O)C=CCN1CCCCC1 : inactive

// recorded Potency for CC(C)c1cc(C(=O)N2Cc3ccc(CN4CCN(C)CC4)cc3C2)c(O)cc1O : 0.092 µM (active)

// recorded Potency for COC(=O)C[C@](O)(CCCC(C)(C)O)C(=O)O[C@@H]1C(OC)=C[C@]23CCCN2CCc2cc4c(cc2[C@H]13)OCO4 : 8.2 µM (active)
